Cited source: PubChem BioAssay (EPA / NIEHS)

- Read-out: Tumor necrosis factor receptor superfamily member 6 (Homo sapiens)
- ASSAY INFO: LTEA_HepaRG_FAS: Life Technologies and Expression Analysis (LTEA) Assay for Fas cell surface death receptor (FAS) using HepaRG (AID 2283447)
- CONDITIONS: mRNA level, 48 h; actives raise or lower the signal
- Method: LTEA_HepaRG is a cell based, multiplexed-readout assay that uses HepaRG, a human liver cell line, with measurements taken at 48 hours after chemical dosing on a 96-well plate.LTEA_HepaRG_FAS is one of 102 assay component(s) measured in the LTEA HepaRG cell culture assay. It is a marker of Cell proliferation, survival, death.Data from the assay component LTEA_HepaRG_FAS was analyzed into 1 endpoint. […]
Calls of active or inactive are those of the source. Rule for the calls: active = hit-call score of the fitted dose curve at least 0.9, where 1 is the maximum; inactive = score below 0.9.
Answer with one of the outcomes active, inactive

Exercise: Check the results log: what was the call for C=CCc1ccc(O)c(OC)c1 ?
Key: inactive

Exercise: Hey, what did the test say about Oc1ccc2ccccc2c1N=Nc1ccccc1 ?
Key: inactive

Exercise: For this compound, state the assay outcome: CCCCCC(=O)O
Key: inactive

Exercise: For CCCCCCCCCCCCCCCC , what call appears in the results of this test?
Key: inactive

Exercise: Please let me know the test result on file for OC[C@@H](O)[C@@H](O)[C@H](O)[C@H](O)CO .
Key: inactive

Continuing:
Exercise: I'd appreciate the recorded outcome for NCC1(Cc2noc(=O)[nH]2)CCCCC1 from this test.
Key: inactive

Exercise: Which outcome was entered for the compound Nc1ccccc1N in this test?
Key: active

Exercise: # lookup: test call for CC(C)c1ccc(C(=O)N=C(N)N)cc1S(C)(=O)=O
Key: active

Exercise: GET /call?item= CCCCCCCCCCCCCCCCCC(=O)O returns the recorded outcome of this test.
Key: inactive

Exercise: Recorded call for CCOC(=O)CCC(=O)OCC ?
Key: active

Exercise: Please share the test call associated with CCCc1cc(=O)[nH]c(=S)[nH]1 .
Key: inactive
